assay: Apparent permeability across apical to basolateral side in MDCK cells; format: ADME, cell-based, Canis lupus familiaris; settings: dog

[
  {
    "Compound": "Cc1cc(C[C@@H](NC(=O)N2CCC3(CC2)OC(=O)Nc2ncccc23)C(=O)N[C@@H](CC2CCNCC2)C(=O)N2CCN(c3ccncc3)CC2)cc2cn[nH]c12 [HTL-0022562]",
    "Papp A→B, ×10⁻⁶ cm/s": 0.8
  }
]

---

assay: Clearance in rat at 0.5 mg/kg, iv; assay type: ADME, organism-based; settings: in vivo

[
  {
    "Smiles structure": "Cc1cc(C[C@@H](NC(=O)N2CCC(n3c(=O)[nH]c4ncccc43)CC2)C(=O)N[C@@H](CC2CCNCC2)C(=O)N2CCN(c3ccncc3)CC2)cc2cn[nH]c12",
    "clearance": "55 mL/min/kg"
  }
]

---

assay: Half life in rat at 1 mg/kg, sc; format: ADME, organism-based; settings: in vivo

[
  {
    "Smiles structure": "Cc1cc(C[C@@H](NC(=O)N2CCC3(CC2)OC(=O)Nc2ncccc23)C(=O)N[C@@H](CC2CCNCC2)C(=O)N2CCN(c3ccncc3)CC2)cc2cn[nH]c12",
    "half-life": "2.6 h"
  }
]
